- ASSAY COMMENT: soluble on expression in E. coli; label from the status in PepcDB or PDB records

SEQUENCE RECORD	soluble on expression in E. coli
MSLSTMGPLGGISVIFDLDGTLVDSEPHYYEAGRRTLAEYGVPDFSWADHEAYVGISTQETVADWKRRYGLRATVEELLAVKNRHYLGLARTSARAYPEMRKFVELLAGEGVPMAVASGSSPEAIAAILARTGLDAHLRTVVSADEVARGKPAPDVFLEAARRLGTEPARCVVLEDAAPGAAAAHAAGMRCIAIPYVSGQADAPEFATAELLVRGGQEEFTARAAHDWLRTDGNATRETEGHHHHHH	soluble
MRGSHHHHHHGSPGLQEFMAATGANAEKAESHNDCPVRLLNPNIAKMKEDILYHFNLTTSRHNFPALFGDVKFVCVGGSPSRMKAFIRCVGAELGLDCPGRDYPNICAGTDRYAMYKVGPVLSVSHGMGIPSISIMLHELIKLLYYARCSNVTIIRIGTSGGIGLEPGTVVITEQAVDTCFKAEFEQIVLGKRVIRKTDLNKKLVQELLLCSAELSEFTTVVGNTMCTLDFYEGQGRLDGALCSYTEKDKQAYLEAAYAAGVRNIEMESSVFAAMCSACGLQAAVVCVTLLNRLEGDQISSPRNVLSEYQQRPQRLVSYFIKKKLSKA	soluble
MGHHHHHHGGHMSLSNEVERVYPRLLDFVRKKYVSKNLLRVTLTGEDLIGFPEDQNGSHIKVFFPNQASGILQLPIREGDKVIWPEHKPVPRAYTVRQYRAQSNELDIDFVVHGEGTPGGGWALKAQTGSQLGLIGPGGPDPLIEPADWHIMAGDLSAVPAISAILEKMPSQAKGYVFLEVDDIEDKHDISHPEQMVIKWLVRDPNQAQPVLAMAIEQLPVPQGAESLSAFVAGENESVIACRKILRNEYRIARDKIYAIPYWKRGKNEEAYHEERHVVMDEEFEGGS	soluble
MSLKVRLEDVAKRLGVSVATVSRSLAGHPAISSETRGAVRAVASELGYRIPTQGRRGKKSSTKLIGVVVGALHNRFMTLLLTHLHDALQELGYQMTLVIDSMNDSQNLQALRPLIEGYLDGLIFATATLDSPVIAEMQRRAIPLVLVVRSVDDVRVDTVEIDNVHAGAVAAEHLYQLGHRRIGLVMGPQNTSTSRDRAKGALTYLADIGISSEAVTLMWSDYTTEAGYSSAMAIFNEADPVTAIVAGNDTIALGVLEAAARRAIKVPEQLSVIGFDDMPLAGSPLVALTSIRQPVRAMARTAARRLIDRIRAGGMGAPVHDVLPIQLVRRETTGPREGHHHHHH	soluble

---

- ASSAY COMMENT: soluble on expression in E. coli; label from the status in PepcDB or PDB records
RESULT TYPE: soluble on expression in E. coli

SEQUENCE RECORD	RESULT TYPE	MEAS VALUE
MIVLIDGPSGSGKTTFAGFLGEILGMRIVHFDDLYPGWHGLAAGVKIVTALLEGAGGYHRWDWANNVMGPWVEVPERNLIIEGVGSLAPSVVRAARQHGPVLTMLFDGPEQMRRSRALARDPFYEPWWEMWAEQEARHFATVETPDVTRGYP	soluble on expression in E. coli	not soluble
MGSDKIHHHHHHMSEKTLYQKLQNIHKKVPYIQKSQQASQYSYAGSSDVLGTIHGLMDEEKLILIPQITNKNTETSQNRKGSTVIFTELMMTMTWVNSDNPDEKLECQWYAQGIDTAGEKGVGKALTYGEKYFLLKFFNVATDDLDPDAFQENVKAQKAPELINDEQKKTLKELFNSMASVTKTPIEKVSKAYLKKVNSDSIEKLQEDTAIGLIELVTNQLNKQTEKAGK	soluble on expression in E. coli	not soluble
MGVEQILKRKTGVIVGEDVHNLFTYAKEHKFAIPAINVTSSSTAVAALEAARDSKSPIILQTSNGGAAYFAGKGISNEGQNASIKGAIAAAHYIRSIAPAYGIPVVLHSDHCAKKLLPWFDGMLEADEAYFKEHGEPLFSSHMLDLSEETDEENISTCVKYFKRMAAMDQWLEMEIGITGGEEDGVNNENADKEDLYTKPEQVYNVYKALHPISPNFSIAAAFGNCHGLYAGDIALRPEILAEHQKYTREQVGCKEEKPLFLVFHGGSGSTVQEFHTGIDNGVVKVNLDTDCQYAYLTGIRDYVLNKKDYIMSPVGNPEGPEKPNKKFFDPRVWVREGEKTMGAKITKSLETFRTTNTL	soluble on expression in E. coli	soluble
EKTVRVVINFKKTQKTIVRVSPHASLQELAPIICSKCEFDPLHTLLLKDYQSQEPLDLTKSLNDLGLRELYAMDVNRE	soluble on expression in E. coli	soluble
VADRYAVYWNSSNPRFQRGDYHIDVCINDYLDVFCPHYEDSVPEDKTERYVLYMVNFDGYSACDHTSKGFKRWECNRPHSPNGPLKFSEKFQLFTPFSLGFEFRPGREYFYISSAIPDNGRRSCLKLKVFVRPTNSCM	soluble on expression in E. coli	soluble
MSDGFSVDPAELEGFAGVAEGHAGTAGQIKGLVDRADVGDKSWGVVGLFVKSTYTGMLGDLKELFGDLEEGLRGVGERFRATAEDYRGPEEAIQRAFDGIDTGSGGR	soluble on expression in E. coli	not soluble

Okay, here is my list. What is soluble on expression in E. coli for each of these?
1. MGSSHHHHHHSSGLVPRGSHMSGALKENSGKPSEVEYTHFKDLQALEMERGRLYETIVVTWDDSMVGNAAPIGVLCTGDDTVTLYLYQGTRTVENVLNNGRFTVNVTLDPLIFTDSTLGDLEEDMFSHYRDFLHLRGADAFFTAEVVSVKKLVKRDRFGESELHVVKARAGDVMRAESFRMALNRGIYAVIESLIAYTRAEFSDPLVLRERIAEMNRVARKVGGPREKEAMRRIIQALESKIS
2. MQTETIHNIPYVNSNLTSFIDYLEKHYIDQKIGAVISTVNPEIAFAAIKDRDYFDVLSSSNFILPDGIGVVMMSRLTNNRLQSRIAGYDVFKELLGVANKKKKRIFLYGAKKDVIKGVVSKISSEYPNIKIAGYSDGYVQDRTLVAKQIARANPDMVFVALGYPHQEKFIHNYRHLFPKAVSIGLGGSFDVFSGNVKRAPSWMIRLNLEWFYRLILNPWRWKRMLSIPKYALTVLKEEKNKKTFYPKPEKDHTKQI

Ans.
soluble
not soluble
